Test system: CD2F1 mice, L1210 leukemia ip, survival T/C
Test: NCI In Vivo Anticancer Drug Screen. Data for tumor model L1210 Leukemia (intraperitoneal) in CD2F1 (CDF1) mice
Settings: endpoint: mean survival time; dose: 100.0 mg/kg/injection; schedule: Q01DX001 (ip); vehicle: saline; higher = longer survival
Experimental: The antitumor activity of compounds was measured in mice bearing transplantable tumors. Survival or tumor size were measured and the results are expressed as the measurement made in the treated group (T) divided by the measurement made in the vehicle treated control group (C). The tumor model used in this assay is L1210 Leukemia (intraperitoneal) in CD2F1 (CDF1) mice
Inconclusive results and toxic doses are left out.
observed.property: T/C

c1ccc2c(-c3nnn4ccccc34)cccc2c1    89 % of control
CC(=O)O.CC(=O)O.O.[Fe]    98 % of control
O=C1CCCC/C1=N\Nc1ccccc1    91 % of control
Oc1ccccc1/C=N/c1nc2ccc(Cl)cc2s1.Oc1ccccc1/C=N/c1nc2ccc(Cl)cc2s1.[Zn]    87 % of control
CC(=O)N(CC(C)C)N=O    95 % of control

Request: Determine its reported T/C: CC(C)CC(NC(c1ccccc1)(c1ccccc1)c1ccccc1)C(=O)O (stereo not given)
Result: 102 % of control

Request: Determine its reported T/C: CN(CCCOS(C)(=O)=O)CCCN(C)CCCOS(C)(=O)=O
Result: 117 % of control

Request: Determine its reported T/C: CN=C(c1ccccc1)C1(O)CC2CCC1C2 (stereo not given)
Result: 101 % of control

The values you see were collected from PubChem BioAssay AID256.
